Source listed as PubChem BioAssay AID1117319.

# systemUnderTest: Virion infectivity factor (Human immunodeficiency virus type 1 group M subtype B (isolate BH10)) + Virion infectivity factor (Human immunodeficiency virus type 1 group M subtype B (isolate BRU/LAI)) + Virion infectivity factor (Human immunodeficiency virus type 1 group M subtype B (isolate PCV12)) + Virion infectivity factor (Human immunodeficiency virus type 1 group M subtype B (isolate HXB2)) + DNA dC->dU-editing enzyme APOBEC-3G (Homo sapiens) (UniProt P69720+P69721+P69722+P69723+Q9HC16)
# testDetails: inhibitors of Vif binding to APOBEC3G peptide, primary screen, biochemical, TR-FRET, GST-Vif 1-94, biotin-A3G peptide, dose response retest (AID 1117319);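 also: Vif residues 1-94 fused to GST binding biotinylated APOBEC3G peptide 110-148; 0% = full assay without inhibitor and 100% = GST in place of GST-Vif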
# conditions: active compounds read high
Among all 260,000 compounds or so, about 1,500 (0.58%) were called active. Another 5% or so got no clear call; they are omitted. These entries were drawn from the full list. Results with a measured potency or affinity are listed apart.
assayMetric: inhibition (%)

compound: O=C1NC(=S)N/C1=C/c1cc2c(cc1[N+](=O)[O-])OCO2
assayMetric: inhibition
result: -9.06
//
compound: COc1c(O)cc2c(c1O)C(=O)CC(c1ccccc1)O2 (stereo unspecified)
assayMetric: inhibition
result: 2.35
//
compound: COc1cccc(N2C(=O)/C(=C\c3cccs3)NC2=S)c1
assayMetric: inhibition
result: 7.97
//
compound: O=C(COc1ccc2c(c1)CCC2)N1CCN(c2ccc(F)cc2)CC1
assayMetric: inhibition
result: 4.96
//
compound: Cc1ccc(NC(=O)CCCN2C(=O)C(c3ccccc3)Oc3cccnc32)c(C)c1 (stereo unspecified)
assayMetric: inhibition
result: -3
//
compound: O=[N+]([O-])c1ccc(Cl)c(/C=N/N2CCN(Cc3ccc(Cl)cc3)CC2)c1
assayMetric: inhibition
result: -0.57
//
compound: Oc1c(C=Nc2ccccc2)sc2ccccc12
assayMetric: inhibition
result: -6.91
//
compound: O=C1N/C(=C/c2ccc(Br)s2)C(=O)N1c1ccccc1
assayMetric: inhibition
result: -0.93
//
compound: Cc1nc2ccccn2c1-c1csc(NCc2ccco2)n1
assayMetric: inhibition
result: 5.14
//
compound: Cc1ccc(C(=O)C2=C(O)C(=O)N(c3ncccn3)C2c2ccc(Cl)cc2)o1 (stereo unspecified)
assayMetric: inhibition
result: -30.5
//
compound: COc1ccccc1N1C(=O)S/C(=C\c2ccc(C)s2)C1=O
assayMetric: inhibition
result: -7.12
